Value source: patent US4457865A

# Tested on: AS-40-80 fraction (partially purified LFA)
# test_name: Inhibition of hemagglutination by partially purified LFA (AS-40-80 fraction)
# Format: cell-based, Limax flavus
# test_settings: carbohydrate 25.0 mM; 20 μg protein of AS-40-80 per assay
metric_name: Inhibition (%) AS-40-80 Fraction
API: value field is a number in %; no unit string.

Lab note: OC[C@H]1OC(O)[C@H](O)[C@@H](O)[C@H]1O (single isomer, unassigned) [D (+) Galactose] gave Inhibition (%) AS-40-80 Fraction of 0

Lab note: N[C@H]1C(O)O[C@H](CO)[C@@H](O)[C@@H]1O (some centres unmarked) gave Inhibition (%) AS-40-80 Fraction of 19

Lab note: O[C@@H]1[C@@H](O)[C@@H](O)CO[C@H]1O [α (+) Arabinose] gave Inhibition (%) AS-40-80 Fraction of 0

Lab note: OC[C@H]1O[C@@](CO)(O[C@H]2O[C@H](CO)[C@@H](O)[C@H](O)[C@H]2O)[C@@H](O)[C@@H]1O gave Inhibition (%) AS-40-80 Fraction of 0

Lab note: CO[C@H]1O[C@H](CO)[C@@H](O)[C@H](O)[C@H]1O [α-Methyl-D-Glucoside] gave Inhibition (%) AS-40-80 Fraction of 0
